Please go through the items and note down their binding signal.
Target: T1, UNK ZnF1-3 (human, UniProt Q9C0B0 31-174)
T1 sequence: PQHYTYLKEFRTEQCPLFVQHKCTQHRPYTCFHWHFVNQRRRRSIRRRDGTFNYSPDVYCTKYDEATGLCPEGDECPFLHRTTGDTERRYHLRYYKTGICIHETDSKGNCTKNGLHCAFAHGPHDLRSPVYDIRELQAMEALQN
Assay: nsRBNS (natural sequence RNA bind-n-seq); RBNS binding buffer (assumed for nsRBNS): 25 mM Tris pH 7.5, 150 mM KCl, 3 mM MgCl2, 0.01% Triton X-100, 500 ug/ml BSA, 20 U/ml SUPERase-In, 4 C; UNK is unkempt and MSI1 is Musashi-1; names of the RNAs are library labels; protein concentration not given here; high values mean tight binding
Over roughly 24,000 sequences, “enrichment r” has its median near 0.99; the highest 2% begin near 3.7. Only a sample is shown.
Please reply with the bare figure in enrichment R and do not write the unit itself.

The recorded binding signal for entry chr5:125866394:125866395:-_ENSMUSG00000008348_ENSMUST00000136312|mus_hu|FALSE|FALSE (ssRNA) RNA: GGGAGUUCUACAGUCCGACGAUCACAACUUUAUUGAAAGGAAAGUGCAAUGAAAUUUGUUGAAACCUUAAAAGGGGAAACUUAGACACCCCCCCUCAAGCGCAGGACCAAGUGCAGAGUGGACUCUUUCUGGAUGUUGUAGUCCAACAGAGGAUUGAGCAUCA equals 1.57

Note to self: binding signal recorded for chr13:90237973:90237974:+_ENSMUSG00000012422_ENSMUST00000161568|mus_hu|FALSE|FALSE (ssRNA) RNA: GGGAGUUCUACAGUCCGACGAUCAAGCACAGGUACAUAUAAGCAGCAAGAUUACAGUCAAUAGACUCUGAAAAUUGAAAAUGGCAGACAUAGCGAGGCCGGCGAUGCCGCAGCCACAUCACCCUUCCGGGGCUCAGGCGGAAGCAACAGAGGAUUGAGCAUCA was 1.37

The binder listed as 73047273_73096420_338_5pUTR_ENSG00000163605_ENST00000295862|human|control|control (ssRNA) RNA: GGGAGUUCUACAGUCCGACGAUCGGCUCAGGAGCUGAAGUUCUGAAAUCAUCCAUCACUUUCUCCAGUUUGAAAAUAAAAUAGCCUUUAAAUUGGGACCACUGAAUCAUUGUUUCUCCAGUCUUGGCUACAUGACAAAGAAACCAACAGAGGAUUGAGCAUCA shows binding signal equal to 1.25
